Assay: Oral bioavailability in rat at 1 mg/kg
Assay type: ADME, organism-based
Settings: in vivo
measured parameter: bioavailability (%)
// note: answer is a bare numeric in %

Req: What measured bioavailability goes with C[C@@H]1CCCN1CCc1ccc2cc(-c3ccc(C#N)cc3)ccc2c1 ?
Resp: 55

###

Test: AUC (0 to infinity) in rat at 1 mg/kg, iv
Assay type: ADME, organism-based
Parameters: time infinity, dose 1 mg/kg, route intravenous
Conditions: plasma
measured parameter: AUC(0-inf) (ng·h/mL)
// note: answer is a bare numeric in ng·h/mL

Req: What measured AUC(0-inf) goes with C[C@@H]1CCCN1CCc1cc2cc(-c3ccc(C#N)cc3)ccc2o1 ?
Resp: 673

Req: What measured AUC(0-inf) goes with C[C@@H]1CCCN1CCc1ccc2cc(-c3ccc(C#N)cc3)ccc2c1 ?
Resp: 1640

###

Parameter 'readout' = pKi; parameter 'system' = Histamine H3 receptor (Homo sapiens, UniProt Q9Y5N1).
Sequence (Q9Y5N1 whole entry): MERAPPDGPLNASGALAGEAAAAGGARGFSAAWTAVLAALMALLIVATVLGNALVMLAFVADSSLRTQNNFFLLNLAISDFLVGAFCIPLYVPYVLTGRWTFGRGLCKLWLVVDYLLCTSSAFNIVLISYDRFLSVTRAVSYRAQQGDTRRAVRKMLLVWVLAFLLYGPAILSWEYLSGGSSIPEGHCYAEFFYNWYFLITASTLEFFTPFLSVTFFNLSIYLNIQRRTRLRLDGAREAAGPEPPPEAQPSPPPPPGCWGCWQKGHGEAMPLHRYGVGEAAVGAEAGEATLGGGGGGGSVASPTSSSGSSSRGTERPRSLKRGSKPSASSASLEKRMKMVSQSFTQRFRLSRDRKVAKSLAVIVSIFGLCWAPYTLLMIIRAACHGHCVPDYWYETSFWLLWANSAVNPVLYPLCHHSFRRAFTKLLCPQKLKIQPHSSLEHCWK
Scale note: pKi = -log10(concentration in M).

Req: What measured pKi goes with CC(C)CC1CCCN1CCc1ccc2cc(-c3ccc(C#N)cc3)ccc2c1 (stereo not given) ?
Resp: 6.56

Req: What measured pKi goes with CCCN(C)CCc1ccc2cc(-c3ccc(C#N)cc3)ccc2c1 ?
Resp: 8.68

Req: What measured pKi goes with CC(C)C1CCCN1CCc1ccc2cc(-c3ccc(C#N)cc3)ccc2c1 (stereo not given) ?
Resp: 7.56

Req: What measured pKi goes with CC[C@@H]1CCCN1CCc1ccc2cc(-c3ccc(C#N)cc3)ccc2c1 ?
Resp: 8.06

Req: What measured pKi goes with CN(C)[C@@H]1CCN(CCc2ccc3cc(-c4ccc(C#N)cc4)ccc3c2)C1 ?
Resp: 7.70

Req: What measured pKi goes with N#Cc1ccc(-c2ccc3cc(CCN4CCC[C@@H]4CO)ccc3c2)cc1 ?
Resp: 8.54

Req: What measured pKi goes with C[C@H]1CCCN1CCc1ccc2cc(-c3ccc(C#N)cc3)ccc2c1 ?
Resp: 9.92

Req: What measured pKi goes with C[C@@H]1CCCCN1CCc1ccc2cc(-c3ccc(C#N)cc3)ccc2c1 ?
Resp: 8.06

Req: What measured pKi goes with N#Cc1ccc(-c2ccc3cc(CCN4CC=CC4)ccc3c2)cc1 ?
Resp: 8.48

Req: What measured pKi goes with N#Cc1ccc(-c2ccc3cc(CCN4CC[C@@H](O)C4)ccc3c2)cc1 ?
Resp: 8.81

###

Assay: AUC (0 to infinity) in rat at 1 mg/kg, po
Type: ADME, organism-based
Set-up: time infinity, dose 1 mg/kg, route oral
Conditions: plasma
measured parameter: AUC(0-inf) (ng·h/mL)
// note: answer is a bare numeric in ng·h/mL

Req: What measured AUC(0-inf) goes with C[C@@H]1CCCN1CCc1ccc2cc(-c3ccc(C#N)cc3)ccc2c1 ?
Resp: 890

Req: What measured AUC(0-inf) goes with C[C@@H]1CCCN1CCc1cc2cc(-c3ccc(C#N)cc3)ccc2o1 ?
Resp: 349

###

Assay: Ratio of drug level in brain to plasma in rat at 5 mg/kg, iv
Format: ADME, organism-based
Set-up: dose 5 mg/kg, route intravenous
measured parameter: Kp
Respond numerically, and do not add a unit to the figure.

Req: What measured Kp goes with C[C@@H]1CCCN1CCc1ccc2cc(-c3ccc(C#N)cc3)ccc2c1 ?
Resp: 72

###

Test: Half life in rat at 1 mg/kg, iv
Type: ADME, organism-based
Design: dose 1 mg/kg, route intravenous
Conditions: in vivo
measured parameter: half-life (h)
// note: answer is a bare numeric in h

Req: What measured half-life goes with C[C@@H]1CCCN1CCc1cc2cc(-c3ccc(C#N)cc3)ccc2o1 ?
Resp: 5.3

Req: What measured half-life goes with C[C@@H]1CCCN1CCc1ccc2cc(-c3ccc(C#N)cc3)ccc2c1 ?
Resp: 6.9

###

Answer each item with its documented half-life.
Test: Half life in rat at 1 mg/kg, po
Assay type: ADME, organism-based
Design: dose 1 mg/kg, route oral
Conditions: in vivo
Give the figure together with its unit, number first.

Req: What measured half-life goes with C[C@@H]1CCCN1CCc1cc2cc(-c3ccc(C#N)cc3)ccc2o1 ?
Resp: 312 min

Req: What measured half-life goes with C[C@@H]1CCCN1CCc1ccc2cc(-c3ccc(C#N)cc3)ccc2c1 ?
Resp: 390 min
